# ASSAY NAME: Pharmacokinetic evaluation of liquid bevirimat dosage forms, oral gavage, male Cynomolgus monkeys
# APPLIED CONDITIONS: male, cynomolgus monkey, in vivo, 50 mg/kg, pH 8
# Description: Six male Cynomolgus monkeys having an initial body weight of about 3.5 to about 4.5 kg are allowed 7 days to acclimate to their individual housing units. Monkeys are supplied with water and a commercial diet ad libitum prior to the study initiation. Food is withheld from the monkeys for a minimum of twelve hours before the study and during the study until four hours postdose when food is returned. Water is supplied ad libitum. […]
READOUT NAME: concentration at 6 hr (µg/mL)

[
  {
    "COMPOUND": "C=C(C)[C@@H]1CC[C@]2(C(=O)O)CC[C@]3(C)[C@H](CC[C@@H]4[C@@]5(C)CC[C@H](OC(=O)CC(C)(C)C(=O)O)C(C)(C)[C@@H]5CC[C@]43C)[C@@H]12 [Bevirimat]",
    "OBSERVED RESULT": 107
  }
]

====

# ASSAY NAME: Pharmacokinetic evaluation of liquid bevirimat dosage forms, oral gavage, male Cynomolgus monkeys
# APPLIED CONDITIONS: male, cynomolgus monkey, in vivo, po, 200 mg/monkey, Plasma Concentration, PG/glycerin/Vitamin ETPGS/ethanol formulation; 72 hr; AVG

[
  {
    "COMPOUND": "C=C(C)[C@@H]1CC[C@]2(C(=O)O)CC[C@]3(C)[C@H](CC[C@@H]4[C@@]5(C)CC[C@H](OC(=O)CC(C)(C)C(=O)O)C(C)(C)[C@@H]5CC[C@]43C)[C@@H]12 [Bevirimat]",
    "concentration at 72 hr": "296 ng/mL"
  }
]

====

# ASSAY NAME: Pharmacokinetic evaluation of liquid bevirimat dosage forms, oral gavage, male Cynomolgus monkeys
# APPLIED CONDITIONS: male, cynomolgus monkey, in vivo, po, 50 mg/monkey, Plasma Concentration, PG/glycerin/Vitamin ETPGS/ethanol formulation; 0.50 hr; AVG
READOUT NAME: concentration at 0.5 h (ng/mL)

[
  {
    "CHEMICAL SMILES": "C=C(C)[C@@H]1CC[C@]2(C(=O)O)CC[C@]3(C)[C@H](CC[C@@H]4[C@@]5(C)CC[C@H](OC(=O)CC(C)(C)C(=O)O)C(C)(C)[C@@H]5CC[C@]43C)[C@@H]12",
    "READOUT NAME": "concentration at 0.5 h",
    "VALUE UNITS": "ng/mL",
    "OBSERVED RESULT": 246
  }
]

====

# ASSAY NAME: Pharmacokinetic evaluation of bevirimat HPβCD formulation, intravenous, male Cynomolgus monkeys
# APPLIED CONDITIONS: male, cynomolgus monkey, plasma, iv, 10 mg

[
  {
    "CHEMICAL SMILES": "C=C(C)[C@@H]1CC[C@]2(C(=O)O)CC[C@]3(C)[C@H](CC[C@@H]4[C@@]5(C)CC[C@H](OC(=O)CC(C)(C)C(=O)O)C(C)(C)[C@@H]5CC[C@]43C)[C@@H]12",
    "AUC [µg·h/mL]": 58.3
  }
]

====

# ASSAY NAME: Pharmacokinetic evaluation of liquid bevirimat dosage forms, oral gavage, male Cynomolgus monkeys
# APPLIED CONDITIONS: male, cynomolgus monkey, in vivo, po, 50 mg/monkey, Plasma Concentration, PG/glycerin/Vitamin ETPGS/Tween80/Plasdone C15 formulation; 6.0 hr; individual monkey

[
  {
    "CHEMICAL SMILES": "C=C(C)[C@@H]1CC[C@]2(C(=O)O)CC[C@]3(C)[C@H](CC[C@@H]4[C@@]5(C)CC[C@H](OC(=O)CC(C)(C)C(=O)O)C(C)(C)[C@@H]5CC[C@]43C)[C@@H]12",
    "VALUE UNITS": "µg/mL",
    "concentration at 6 h": 31.5
  }
]
